Values compiled from PubChem BioAssay (NCI).

Catalogue of growth inhibition values
# Procedure summary: NCI Yeast Anticancer Drug Screen. Data for the cln2 rad14 strain (AID 165);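 further: 0% = growth equal to vehicle treated cultures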
# Condition details: S. cerevisiae cln2 rad14 strain, at 5.0 µM (retest, dose inferred, filed as 0.5), stronger effect = higher value
Compounds without any hit were thinned out: in the full panel of roughly 79,000, 15% have a hit.
Test readout: growth inhibition (%)

| Compound | Test readout | Observed value |
| --- | --- | --- |
| CCOCCOC(=O)c1cc([N+](=O)[O-])cc([N+](=O)[O-])c1 | growth inhibition | -3 |
| COc1nc2nc(SC(CC(=O)O)C(=O)c3ccc(Cl)cc3)[nH]c2c2ccccc12 (stereo not given) | growth inhibition | 2 |
| C/C(CCC(=O)O)=N/Nc1ccc(C(=O)O)cc1 | growth inhibition | 7 |
| CCOP(=O)(OCC)C(=C1C=C(C(C)(C)C)C(=O)C(C(C)(C)C)=C1)P(=O)(OCC)OCC | growth inhibition | -4 |
| CC(C)c1ccc2c(c1)CC[C@@H]1[C@](C)(CO)CCC[C@]21C | growth inhibition | 2 |

----------
# Procedure summary: NCI Yeast Anticancer Drug Screen. Data for the rad50 strain (AID 155);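 further: 0% = growth of vehicle-only cultures of the same strain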
# Condition details: S. cerevisiae rad50 strain growth inhibition; at 5.0 µM (retest, dose inferred, filed as 0.5); stronger effect = higher value
Compounds without any hit were thinned out: in the full panel of roughly 79,000, 15% have a hit.
Here the recorded growth inhibition is given for each entry.

| Compound | growth inhibition [%] |
| --- | --- |
| Oc1c(Cl)cccc1-c1ccccc1 | 2 |
| Cc1cc(O)c(C=NC(=S)C(N)=S)c(=O)o1 | 29 |
| O=[N+]([O-])c1ccc2c(c1)/C(=C/c1ccccc1O)c1ccccc1-2 | 66 |
| c1ccc(-c2nc3nc4ccccc4nc3nc2-c2ccccn2)nc1 | -8 |
| CCOC(=O)c1c(SCC#N)n(-c2ccccc2)c(=S)n(-c2ccccc2)c1=O | 12 |
| CCc1nc(N)nc(N)c1-c1ccc(N2CCCCC2)c([N+](=O)[O-])c1 | 3 |
| CC(C)Cc1cc(O)cc2ccccc12 | 4 |
| CCCCCCCCCCCCOC(=O)C[n+]1cccc(C(=O)Nc2ccccc2)c1 | 96 |
| O=c1[nH]c2c([N+](=O)[O-])cc(Cl)cc2nc1/C=C(\O)c1ccc2ccccc2c1 | -4 |
| COC(=O)C1=C(/C=C/C(C)=O)NC(C)=C(C(=O)OC(C)C)C1c1ccccc1Cl (configuration not stated) | 40 |
| CC12CC(Sc3ccccc3N1)c1ccccc1O2 (configuration not stated) | 37 |
| O=C1CCCC2c3ccccc3NC12 (configuration not stated) | -147 |
| CC(C)(C)Oc1ccc(CC(NC(=O)OCC2c3ccccc3-c3ccccc32)C(=O)O)cc1 (configuration not stated) | 9 |
| COc1cc(C2c3cc4c(cc3C(OC3CCCCO3)C3COC(=O)C23)OCO4)cc(OC)c1OC (configuration not stated) | -2 |
| Cc1ccc(S(=O)(=O)OCCc2ccc(Cl)cc2)cc1 | -10 |
| Oc1c(Cl)cc(C(c2cc(Cl)c(O)c(Cl)c2)C(Cl)(Cl)Cl)cc1Cl | 94 |
| Cc1cn(C(C#N)=C(C#N)C#N)c2ccccc12 | 0 |
| CCN1CCC(O)(/C=C/c2ccccc2C)C(C(=O)/C=C/c2ccccc2C)C1 (configuration not stated) | 8 |
| CCCCNc1ccc(-c2c(N)nc(N)nc2CC)cc1[N+](=O)[O-] | -7 |
| COC(=O)C1(Cc2ccc3c(c2)CCC3)Cc2ccccc2C1O (configuration not stated) | -3 |
| OCCCNc1nc2c(Cl)cc(Cl)cc2c2ccccc12 | 16 |
| Nc1ncnc2c1c(-c1ccccc1)cn2-c1ccccc1 | 38 |
| COc1cccc(NC(=S)NC(Cc2ccccc2)c2ccccc2)c1 (configuration not stated) | -7 |
| c1cc[c]([Sn]([CH]2c3ccccc3-c3ccccc32)([CH]2c3ccccc3-c3ccccc32)[CH]2c3ccccc3-c3ccccc32)cc1 | 4 |
| C=CC1(C)CCC2C(=CCC3C2(C)CC(O)C(O)C3(C)COC2OC(CO)C(O)C(O)C2O)C1 (configuration not stated) | 1 |
| C/C=C(/CCC1NCCC2c3ccccc3NC12)[Si](C)(C)C (configuration not stated) | 1 |
| Nc1ccc(C(=O)Nc2ccc(C(=O)Nc3ccc(/C=C/c4ccc(NC(=O)c5ccc(N)cc5)cc4S(=O)(=O)O)c(S(=O)(=O)O)c3)cc2)cc1 | -2 |
| CCCCCCCCCCCCNC(=O)OCC(C)O (configuration not stated) (tested in a mixture with another compound) | 95 |
| Oc1ccccc1C1CCCCC1 | 1 |
| OC(CBr)C[n+]1cccc2cc(Cl)ccc21 (configuration not stated) | 6 |
| CCOC(=O)C1=C(C)NC(C)=C(C(=O)OCC)C1c1c(-c2ccccc2)noc1C | 23 |
| ON=C1Cc2ccccc2-c2ccccc2C1 | 2 |
| CCC[CH2][Sn]([CH2]CCC)([O]C(=O)c1ccc(C)c(N)c1)[O]C(=O)c1ccc(C)c(N)c1 | 98 |
| CC(C)C1/C(=N/O)CC(c2ccccc2)N(N=O)C1c1ccccc1 (configuration not stated) | 10 |
| Nc1ccc2nc(Nc3ccc(Cl)c(Cl)c3)cnc2c1 | -17 |
| c1ccc(Oc2ccc(Nc3c4ccccc4nc4ccccc34)cc2)cc1 | 85 |
| N#CI1OC(C(F)(F)F)(C(F)(F)F)c2ccccc21 | 72 |
| CC1CCC2(OC1)OC1CC3C4CCC5CC(OC6OC(COC7OC(CO)C(O)C(O)C7O)C(OC7OC(C)C(O)C(O)C7O)C(O)C6OC6OC(CO)C(O)C(O)C6O)CCC5(C)C4CCC3(C)C1C2C (configuration not stated) | 0 |
| CC(C)(C)CC(C)(C)N[P+](NC(C)(C)CC(C)(C)C)(NC(C)(C)CC(C)(C)C)NC(C)(C)CC(C)(C)C | 89 |
| O=C(c1ccccc1)C(Br)C(Br)c1ccc(Cl)c(Cl)c1 (configuration not stated) | 67 |
| CCOC(=O)C(Cc1ccc(O)c(C=O)c1)NC(C)=O (configuration not stated) | -13 |
| CC(C)(C)OC(=O)N(CCCCNC(=O)OCc1ccccc1)CCCNC(=O)OCc1ccccc1 | 9 |

----------
# Procedure summary: NCI Yeast Anticancer Drug Screen. Data for the sgs1 mgt1 strain (AID 161);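 further: 0% = growth of cultures given vehicle only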
# Condition details: S. cerevisiae sgs1 mgt1 strain, at 50.0 µM
# Method: Growth inhibition of yeast strains with defined genetic alterations is measured as a screen for potential anti-cancer activity. Selected strains with alterations in DNA damage repair or cell cycle control were exposed to compounds and growth inhibition was measured relative to vehicle treated controls. The strain used in this assay is sgs1 mgt1
This is part of a sample that, as a whole, favours compounds with a hit. Of some 79,000 tested, about 15% had one in any assay. Active and inactive are the calls of the source. Cut-off read from the data, not from the text of the source: active = growth inhibition above about 70%; inactive = the rest.
Outcomes: active, inactive

| Molecule | Class name |
| --- | --- |
| COc1ccc2c(c1)CCC1C2CCC2(C)C(=O)C(SC3=NC=NC4=NC=NC43)CC12 (stereo not given) | active |
| CC(C)CC(NC(=O)SCc1ccccc1)C(=O)O (stereo not given) | inactive |
| Oc1ccc(Cc2cccc(Br)c2)c(O)c1 | active |
| Cc1c(NC(=O)/C(=N/NC(=S)N=N)C2C(=O)CC(C)(C)CC2=O)c(O)c2ccccc2c1O | active |
| Oc1ccc2c(c1)Cc1cc(Br)ccc1-2 | active |
| Cc1cc(O)c(C=NC(=S)C(N)=S)c(=O)o1 | inactive |
| COc1ccc(Cc2cncc3c(O)c(OC)ccc23)cc1O | inactive |
| O=C(Nc1ccc(Cl)cc1)Nc1cc(Cl)ccc1O | active |
| COc1ccc(/C=C/c2ccnc3ccccc23)cc1 | active |
| CCCCCCCCCCCCCCCC1=NCCN1C | inactive |
| CC(=O)Oc1ccc(C(C)(C)CC(C)(C)C)cc1 | active |
| CN(c1ccccc1)N(C)c1ccccc1 | inactive |
| O=C(Nc1ccccc1)OC1CCCC1 | active |
| COC(=O)c1cccc2c3ccccc3c3ccccc3c12 | active |
| O=C(CCl)[O][Bi]([O]C(=O)CCl)([c]1ccccc1)([c]1ccccc1)[c]1ccccc1 | inactive |
| COC(=O)C1=C(/C=C/C(C)=O)NC(C)=C(C(=O)OC(C)C)C1c1ccccc1Cl (stereo not given) | inactive |
| C/C(=N\NC(N)=S)C(CN1CCCCC1)C(C1=C(O)c2ccccc2OC1)c1ccccc1 (stereo not given) | inactive |
| O=C1c2ccccc2C(=O)N1CCn1ccc(NC(c2ccccc2)(c2ccccc2)c2ccccc2)nc1=O | inactive |
| c1ccc(Oc2ccc(Nc3c4ccccc4nc4ccccc34)cc2)cc1 | active |
| CC(C)(C)CC(C)(C)c1ccc(O)c(Cl)c1 | active |
| CCN(CC)CCOc1c(Cl)c(Cl)c(Cl)c(Cl)c1Cl | active |
| O=[N+]([O-])c1cc(I)cc(/C=N/NS(=O)(=O)c2ccc(F)cc2)c1O | active |
| CCN(CC)C(C)(C)C(=O)/C=C/c1ccc(Cl)c(Cl)c1 | active |
| C(/C=C/CC=Nc1ccccc1)=Nc1ccccc1 | inactive |
| CCCCCCCCCCCCCCCBr | inactive |
